tested on: Enterococcus sp.; test: in vitro antibacterial evaluation, MIC by broth dilution; type: cell-based; details: Enterococcus faecalis (GC 2691); broth dilution, 18 hours at 35° C.
property_measured: MIC Enterococcus faecalis (GC 2691) (µg/mL)
Report only the number, with the unit µg/mL understood.

Look over these answered cases.
Exercise: Item under review: CC(c1ccccc1)C1NC(=O)CNC(=O)C(CO)NC(=O)C(C(O)C2CNC(=N)N2C2OC(CO)C(O)C(O)C2O)NC(=O)C(C(O)C2CNC(=N)N2)NC(=O)C(Cc2ccc(OC3OC(CO)C(OC4OC5COC(c6ccc7c(c6)OCO7)OC5C(O)C4O)C(O)C3O)cc2)NC1=O (stereo not shown) . Reported MIC Enterococcus faecalis (GC 2691)?
Solution: 8

Exercise: Same lookup for COc1cc(OC)cc(C2OCC3OC(OC4C(CO)OC(Oc5ccc(CC6NC(=O)C(C(C)c7ccccc7)NC(=O)CNC(=O)C(CO)NC(=O)C(C(O)C7CNC(=N)N7C7OC(CO)C(O)C(O)C7O)NC(=O)C(C(O)C7CNC(=N)N7)NC6=O)cc5)C(O)C4O)C(O)C(O)C3O2)c1 (stereo not shown) , please.
Solution: 4

Exercise: Same lookup for CC(c1ccccc1)C1NC(=O)CNC(=O)C(CO)NC(=O)C(C(O)C2CNC(=N)N2C2OC(CO)C(O)C(O)C2O)NC(=O)C(C(O)C2CNC(=N)N2)NC(=O)C(Cc2ccc(OC3OC(CO)C(OC4OC5COC(C6CCCCC6)OC5C(O)C4O)C(O)C3O)cc2)NC1=O (stereo not shown) , please.
Solution: 2

Query compound follows.
Exercise: Item under review: Cc1ccc(CC2OCC3OC(OC4C(CO)OC(Oc5ccc(CC6NC(=O)C(C(C)c7ccccc7)NC(=O)CNC(=O)C(CO)NC(=O)C(C(O)C7CNC(=N)N7C7OC(CO)C(O)C(O)C7O)NC(=O)C(C(O)C7CNC(=N)N7)NC6=O)cc5)C(O)C4O)C(O)C(O)C3O2)cc1 (stereo not shown) . Reported MIC Enterococcus faecalis (GC 2691)?
Solution: 2

====

test system: Streptococcus sp.; assay: in vitro antibacterial evaluation, MIC by broth dilution; assay type: cell-based; details: broth dilution, 18 hours at 35° C.; strain GC 1894
Square brackets hold non-standard residues; d marks the D form. Peptide text beside a SMILES is read from it. * marks the point of attachment. ξ: configuration not given here. ξEnduracididine(βξ-OH,4'ξ) = N=C1NCC(C(O)C(N)C(=O)O)N1; X2 = OCC1OC(OC2C(CO)OC(*)C(O)C2O)C(O)C(O)C1O
molecules and their reported MIC Streptococcus pneumoniae (GC 1894)

Look over these answered cases.
Exercise: GET /values?readout=MIC Streptococcus pneumoniae (GC 1894)&system=Streptococcus sp.&item= CC(c1ccccc1)C1NC(=O)CNC(=O)C(CO)NC(=O)C(C(O)C2CN(c3nc4ccccc4s3)C(=N)N2C2OC(CO)C(O)C(O)C2O)NC(=O)C(C(O)C2CNC(=Nc3nc4ccccc4s3)N2)NC(=O)C(Cc2ccc(OC3OC(CO)C(OC4OC(CO)C(O)C(O)C4O)C(O)C3O)cc2)NC1=O (stereo not shown) [Example 94]
Solution: >64 µg/mL

Exercise: Same lookup for N=C1NCC(C(O)C2NC(=O)C(Cc3ccc(OC4OC(CO)C(OC5OC6COC7(OC6C(O)C5O)C5CC6CC(C5)CC7C6)C(O)C4O)cc3)NC(=O)C(CC3CCCCC3)NC(=O)CNC(=O)C(CO)NC(=O)C(C(O)C3CNC(=N)N3C3OC(CO)C(O)C(O)C3O)NC2=O)N1 (stereo not shown) [Example 106] , please.
Solution: <0.03 µg/mL

Exercise: Same lookup for CC(c1ccccc1)C1NC(=O)CNC(=O)C(CO)NC(=O)C(C(O)C2CN(CCCCCCCCCCC(=O)O)C(=N)N2C2OC(CO)C(O)C(O)C2O)NC(=O)C(C(O)C2CNC(=N)N2)NC(=O)C(Cc2ccc(OC3OC(CO)C(OC4OC(CO)C(O)C(O)C4O)C(O)C3O)cc2)NC1=O (stereo not shown) [Example 72] , please.
Solution: 16 µg/mL

Query molecule follows.
Exercise: GET /values?readout=MIC Streptococcus pneumoniae (GC 1894)&system=Streptococcus sp.&item= N=C1NCC(C(O)C2NC(=O)C(Cc3ccc(OC4OC(CO)C(OC5OC(CO)C(O)C(O)C5O)C(O)C4O)cc3)NC(=O)C(Cc3ccccc3)NC(=O)CNC(=O)C(CO)NC(=O)C(C(O)C3CNC(=N)N3)NC2=O)N1 (stereo not drawn) [Example 296] (cyclo(GFY(X2)[ξEnduracididine(βξ-OH,4'ξ)][ξEnduracididine(βξ-OH,4'ξ)]S); configuration not given here)
Solution: 128 µg/mL

====

compounds and their reported MIC Enterococcus faecalis (GC 4554)
tested on: Enterococcus sp.; assay: in vitro antibacterial evaluation, MIC by broth dilution; format: cell-based; conditions: broth dilution, inoculum 5×10^5 CFU/mL, 18 hours at 35° C.; strain GC 4554

Exercise: GET /values?readout=MIC Enterococcus faecalis (GC 4554)&system=Enterococcus sp.&item= CCOc1cc(C2OCC3OC(OC4C(CO)OC(Oc5ccc(CC6NC(=O)C(C(C)c7ccccc7)NC(=O)CNC(=O)C(CO)NC(=O)C(C(O)C7CNC(=N)N7C7OC(CO)C(O)C(O)C7O)NC(=O)C(C(O)C7CNC(=N)N7)NC6=O)cc5)C(O)C4O)C(O)C(O)C3O2)ccc1[N+](=O)[O-] (stereo not shown)
Solution: 32 µg/mL

Exercise: Same lookup for COc1ccc2cc(COC3C(OC4C(CO)OC(Oc5ccc(CC6NC(=O)C(C(C)c7ccccc7)NC(=O)CNC(=O)C(CO)NC(=O)C(C(O)C7CNC(=N)N7C7OC(CO)C(O)C(O)C7O)NC(=O)C(C(O)C7CNC(=N)N7)NC6=O)cc5)C(O)C4O)OC(CO)C(O)C3O)ccc2c1 (stereo not shown) [Example 230c] , please.
Solution: >128 µg/mL

Exercise: Same lookup for CC(c1ccccc1)C1NC(=O)CNC(=O)C(CO)NC(=O)C(C(O)C2CNC(=N)N2C2OC(CO)C(O)C(O)C2O)NC(=O)C(C(O)C2CNC(=N)N2)NC(=O)C(Cc2ccc(OC3OC(CO)C(OC4OC5COC6(OC5C(O)C4O)C4CCCC6CCC4)C(O)C3O)cc2)NC1=O (stereo not shown) , please.
Solution: 8 µg/mL

Exercise: Same lookup for CC(c1ccccc1)C1NC(=O)CNC(=O)C(CO)NC(=O)C(C(O)C2CNC(=N)N2C2OC(CO)C(O)C(O)C2O)NC(=O)C(C(O)C2CNC(=N)N2)NC(=O)C(Cc2ccc(OC3OC(CO)C(OC4OC5COC(c6cc7c(cc6Cl)OCO7)OC5C(O)C4O)C(O)C3O)cc2)NC1=O (stereo not shown) , please.
Solution: 4 µg/mL

====

tested on: Enterococcus sp.; experiment: in vitro antibacterial evaluation, MIC by broth dilution; assay type: cell-based; settings: Enterococcus faecalis (ATCC 29212); broth dilution, 18 hours at 35° C.
molecules and their reported MIC Enterococcus faecalis (ATCC 29212)
Report only the number, with the unit µg/mL understood.

Exercise: GET /values?readout=MIC Enterococcus faecalis (ATCC 29212)&system=Enterococcus sp.&item= CC=C(C)C(=O)OC1C(CO)OC(OC2C(CO)OC(Oc3ccc(CC4NC(=O)C(C(C)c5ccccc5)NC(=O)CNC(=O)C(CO)NC(=O)C(C(O)C5CNC(=N)N5C5OC(CO)C(O)C(O)C5O)NC(=O)C(C(O)C5CNC(=N)N5)NC4=O)cc3)C(O)C2O)C(O)C1O (stereo not drawn) [Example 278b]
Solution: 32

Others:
Exercise: GET /values?readout=MIC Enterococcus faecalis (ATCC 29212)&system=Enterococcus sp.&item= CC(c1ccccc1)C1NC(=O)CNC(=O)C(CO)NC(=O)C(C(O)C2CNC(=N)N2C2OC(CO)C(O)C(O)C2O)NC(=O)C(C(O)C2CNC(=N)N2)NC(=O)C(Cc2ccc(OC3OC(COC(=O)Cc4ccccc4)C(OC4OC(CO)C(O)C(O)C4O)C(O)C3O)cc2)NC1=O (stereo not drawn) [Example 98b]
Solution: 64

Exercise: Same lookup for COc1cccc(C2OC3C(OC4C(CO)OC(Oc5ccc(CC6NC(=O)C(C(C)c7ccccc7)NC(=O)CNC(=O)C(CO)NC(=O)C(C(O)C7CNC(=N)N7C7OC(CO)C(O)C(O)C7O)NC(=O)C(C(O)C7CNC(=N)N7)NC6=O)cc5)C(O)C4O)OC(CO)C(O)C3O2)c1 (single isomer, unassigned) [Example 137b] , please.
Solution: 32

Exercise: Same lookup for CCCC(C)C1OCC2OC(OC3C(CO)OC(Oc4ccc(CC5NC(=O)C(C(C)c6ccccc6)NC(=O)CNC(=O)C(CO)NC(=O)C(C(O)C6CNC(=N)N6C6OC(CO)C(O)C(O)C6O)NC(=O)C(C(O)C6CNC(=N)N6)NC5=O)cc4)C(O)C3O)C(O)C(O)C2O1 (stereo not drawn) [Example 111] , please.
Solution: 2

Exercise: Same lookup for CC(C)=CCCC1OCC2OC(OC3C(CO)OC(Oc4ccc(CC5NC(=O)C(C(C)c6ccccc6)NC(=O)CNC(=O)C(CO)NC(=O)C(C(O)C6CNC(=N)N6C6OC(CO)C(O)C(O)C6O)NC(=O)C(C(O)C6CNC(=N)N6)NC5=O)cc4)C(O)C3O)C(O)C(O)C2O1 (stereo not drawn) [Example 123] , please.
Solution: 8

Exercise: Same lookup for CC(c1ccccc1)C1NC(=O)CNC(=O)C(CO)NC(=O)C(C(O)C2CNC(=N)N2C2OC(CO)C(O)C(O)C2O)NC(=O)C(C(O)C2CNC(=N)N2)NC(=O)C(Cc2ccc(OC3OC(CO)C(OC4OC5COC(C6CCCC6)OC5C(O)C4O)C(O)C3O)cc2)NC1=O (stereo not drawn) [Example 117] , please.
Solution: 2

Exercise: Same lookup for CCCCCCCC1OCC2OC(OC3C(CO)OC(Oc4ccc(CC5NC(=O)C(C(C)c6ccccc6)NC(=O)CNC(=O)C(CO)NC(=O)C(C(O)C6CNC(=N)N6C6OC(CO)C(O)C(O)C6O)NC(=O)C(C(O)C6CNC(=N)N6)NC5=O)cc4)C(O)C3O)C(O)C(O)C2O1 (stereo not drawn) [Example 109] , please.
Solution: 2

Exercise: Same lookup for N=C1NCC(C(O)C2NC(=O)C(Cc3ccc(OC4OC(CO)C(OC5OC(CO)C(O)C6OC7(OC56)C5CC6CC(C5)CC7C6)C(O)C4O)cc3)NC(=O)C(CC3CCCCC3)NC(=O)CNC(=O)C(CO)NC(=O)C(C(O)C3CNC(=N)N3C3OC(CO)C(O)C(O)C3O)NC2=O)N1 (stereo not drawn) [Example 106a] , please.
Solution: 8
